- measuredTarget: native aSyn aggregates in A30P transgenic mouse brain sections (Homo sapiens, UniProt P37840, A30P)
- Construct: from tissue; host or cells: brain sections (midbrain and pons as ROI) of A30P transgenic mice, line B6.D2-Tg(Thy1-SNCA*30P)31Pjk
- assayMethodText: aSyn in vitro displacement assay ([3H]Example-3 autoradiography)
- Type: binding, mutant human aSyn gene)
- protocolConditions: 1 μM compound; 3 nM [3H]Example-3; A30P transgenic mouse brain sections; read-out: PCT_INHIB A30P @ 1 μM (% displacement of [3H]Example-3)
// Not satisfied strictly below 90% in inhibition at 1 µM; Satisfied otherwise

>>> categorylabel("COc1ccc(C(=O)Nc2ccc(N3CCN(c4ncccc4F)CC3)cc2)cc1 [Example 148]")
"Not satisfied"
>>> categorylabel("CN(C)c1ccc(C(=O)Nc2cnc(N3CCN(c4ccccn4)CC3)cn2)cc1 [Example 86]")
"Satisfied"
>>> categorylabel("Cc1ccc(C(=O)Nc2cnc(N3CCN(c4ccccn4)CC3)cn2)cc1 [Example 89]")
"Not satisfied"
>>> categorylabel("O=C(Nc1cnc(N2CCN(c3ccccn3)CC2)nc1)c1ccc(N2CCOCC2)cc1 [Example 63]")
"Satisfied"
>>> categorylabel("COc1ccc(C(=O)Nc2ccc(N3CCN(c4ccc(C#N)cn4)CC3)cc2)nc1 [Example 162]")
"Not satisfied"
